Recorded values, source patent US20110076723A1.

# System: HUVEC
# assay-procedure: Cell-based functional assay, endothelial cell tube formation (BD BioCoat Angiogenesis System)
# Set-up: species or system human
# run-parameters: 5 μM fused protein synergibody, 18 hours; unrelated control group 12,227 ± 1,232
measurement-kind: Length of entire tube of HUVEC (2 × 10^4 cells) (pixels)

[
  {
    "molecule": "Syn-Ang-VEGFR-15: fused protein synergibody SAITAng-2-3 × DTN11VEGFR-2-5, peptide at C-terminal of heavy chain (protein, left off: a dimerising Fc or GST, fused protein synergibody SAITAng-2-3 × DTN11VEGFR-2-5, peptide at C-terminal of heavy chain) heavy (part 1 of 2): DVQLVESGGGLVQPGGSRKLSCAASGFTFSSFGMHWVRQAPEKGLEWVAYISSDSSTIYYADTVKGRFTISRDNPKNTLFLQMTSLRSEDTAMYYCAREGGYDDYYAMDYWGQGTSVTVSS heavy (part 2 of 2): PGSQGYCHLNMRYQWICDSE light: DIQMTQSPASQSASLGESVTITCLASQTIGTWLAWYQQKPGKSPQLLIYAATSLADGVPSRFSGSGSGTKFSFKISSLQAEDFVSYYCQQLYSIPLTFGGGTKLEIK",
    "recorded-measurement": "4,116 ± 815 pixels"
  },
  {
    "molecule": "Syn-Ang-VEGFR-18: fused protein synergibody SAITAng-2-4 × DTN9VEGFR-2-3, peptide at C-terminal of heavy chain (protein, left off: a dimerising Fc or GST, fused protein synergibody SAITAng-2-4 × DTN9VEGFR-2-3, peptide at C-terminal of heavy chain) heavy (part 1 of 2): QVQLQQSGAELARPGASVKLSCKASGYTFTDYYINWAKQRTGQGLEWIGEIYPGSGDTYYNEKFKGKATLTADKSSSTAYMQLSSLTSEDSAVYFCARYGYKGVYFDYWGQSTTLTVSS heavy (part 2 of 2): EAGAYWCKAWGLSPCLVT light: ENVLTQSPAIMAASLGQKVTMTCSASSSVSSSYLHWYQQKSGASPKPLIHRTSNLASGVPARFSGSGSGTSYSLTISSVEAEDDATYYCQQWSGYPFTFGAGTKLELK",
    "recorded-measurement": "5,723 ± 736 pixels"
  },
  {
    "molecule": "Syn-Ang-VEGFR-9: fused protein synergibody SAITAng-2-2 × DTN10VEGFR-2-4, peptide at C-terminal of heavy chain (protein, left off: a dimerising Fc or GST, fused protein synergibody SAITAng-2-2 × DTN10VEGFR-2-4, peptide at C-terminal of heavy chain) heavy (part 1 of 2): QVQLQQSGPELVKPGASVKMSCKASGYTFTDYVISWVKQRTGQGLEWIGEIYPGSGSTYYNEKFKGKASLTADKSSNTAYMQLSSLTSADSAVYFCVRSRGDYYAMDYWGQGTSVTVSS heavy (part 2 of 2): TGSGRMCDGSGPPTNCWFT light: DIQMTQSPSSLSASLGGKVTITCKASQDINNYITWYQHKPGKGPRLLIHYTSTLQPGIPSRFSGSGSGRDYSFSISNLEPEDIATYYCLQYDNLLTFGGGTKLEIK",
    "recorded-measurement": "6,055 ± 779 pixels"
  }
]
